Data credit: ChEMBL document CHEMBL1201862

System: SW-620
Test: NCI tumour cell line growth inhibition, 48 h
The source made the active and inactive calls. No stated cut-off is given here; in the data, active = GI50 up to about 1.1 µM and inactive = higher. *1 amine or outer side, *2 acyl side, *3 side chain or, on linkers, in order; H or OH if unused. Where a SMILES comes first, the peptide text is derived from it. Bridges are numbered along the chain shown (N, C = ends). Roman numbers before positions name the chains, in order. [ ]: non-standard residue; d: D form. Actinocin(1to9) = Cc1c2oc3c(C)ccc(C(=O)[*:2])c3nc-2c(C(=O)[*:1])c(N)c1=O; NMeV = CN[CH](C(=O)O)C(C)C; Sar = CNCC(=O)O
Classes used: 1 (yes) (active), 0 (no) (inactive)

{"compound": "CN(COC(=O)C(C)(C)C)c1nc(N(C)COC(=O)C(C)(C)C)nc(N(C)COC(=O)C(C)(C)C)n1", "answerLabel": "0 (no)"}
{"compound": "CCCCCCCCCCCCCCCCCCNC(=S)N/C=C1/C(=O)C=C(C)OC1=O", "answerLabel": "0 (no)"}
{"compound": "c1ccc(NC[Si]23OCCN(CCO2)CCO3)cc1", "answerLabel": "0 (no)"}
{"compound": "CCOC(=O)c1c2ccc(/C=C/c3ccccn3)ccc-2c(C(=O)OCC)c1N", "answerLabel": "0 (no)"}
{"compound": "COc1ccc(CC2NC(=O)C(NC(=O)c3c4nc5c(C(=O)NC6C(=O)NC(Cc7ccc(OC)cc7)C(=O)N7CCCC7C(=O)N(C)CC(=O)N(C)C(C(C)C)C(=O)OC6C)ccc(C)c5oc-4c(C)c(=O)c3N)C(C)OC(=O)C(C(C)C)N(C)C(=O)CN(C)C(=O)C3CCCN3C2=O)cc1 (configuration not stated) (I: TY(Me)P[Sar][NMeV] / II: TY(Me)P[Sar][NMeV]; ester I:1-I:C, II:1-II:C; linker I:N-II:N via Actinocin(1to9); configuration not given here)", "answerLabel": "1 (yes)"}
{"compound": "N#CN=C(N(Cc1ccccc1)Cc1ccccc1)N(Cc1ccccc1)Cc1ccccc1", "answerLabel": "0 (no)"}
{"compound": "CC(C)(Oc1ccc2c(=O)cc(-c3ccc(Cl)cc3)oc2c1)C(=O)Nc1c(Cl)cccc1Cl", "answerLabel": "0 (no)"}
{"compound": "CC(NC(=O)c1ccc(OP(=O)(OCC2=CC(=O)c3ccccc3C2=O)N(C)CCCCCl)cc1)c1ccc(OCC2CCCCC2)c(C(N)=O)c1 (configuration not stated)", "answerLabel": "0 (no)"}
{"compound": "O=S(=O)(N/N=C/c1c(Cl)cccc1Cl)c1ccccc1", "answerLabel": "0 (no)"}
{"compound": "CCOC(=O)/C(=C\\c1ccc(F)cc1)C(C)=O", "answerLabel": "0 (no)"}
{"compound": "CC(C)CCCC(C)[C@H]1CCC2[C@@H]3CCC4Nc5c(cnn5-c5ccccc5)C[C@]4(C)C3CC[C@@]21C (some centres not stated)", "answerLabel": "0 (no)"}
{"compound": "C/C(CC(=O)Nc1ccccc1[N+](=O)[O-])=N\\NC(N)=O", "answerLabel": "0 (no)"}
{"compound": "CCC(=O)C1(N2CCOCC2)CCN(CCCC(=O)c2ccc(F)cc2)CC1", "answerLabel": "0 (no)"}
{"compound": "O=C1c2cccnc2-c2nccc3ccnc1c23", "answerLabel": "1 (yes)"}
{"compound": "CN(C)c1ccc2c3c(c(=O)oc2c1)CCC3", "answerLabel": "0 (no)"}
{"compound": "CCOP1(=O)C=C(C)C(=C(Cl)Cl)C(C)=C1 (configuration not stated)", "answerLabel": "0 (no)"}
{"compound": "N#Cc1c(Nc2ccc(F)cc2)[n+]([O-])c2ccc(Cl)cc2[n+]1[O-]", "answerLabel": "0 (no)"}
